- test target: T1, human TGR1 (human, UniProt Q9GZQ4 1-415)
- T1 construct: whole, on cells; Assayed as the membrane fraction of TGR1-expressing CHO cells (1.1 mg/mL protein); also called NMUR2; TGR1 receptor
- T1 sequence (Q9GZQ4 whole entry): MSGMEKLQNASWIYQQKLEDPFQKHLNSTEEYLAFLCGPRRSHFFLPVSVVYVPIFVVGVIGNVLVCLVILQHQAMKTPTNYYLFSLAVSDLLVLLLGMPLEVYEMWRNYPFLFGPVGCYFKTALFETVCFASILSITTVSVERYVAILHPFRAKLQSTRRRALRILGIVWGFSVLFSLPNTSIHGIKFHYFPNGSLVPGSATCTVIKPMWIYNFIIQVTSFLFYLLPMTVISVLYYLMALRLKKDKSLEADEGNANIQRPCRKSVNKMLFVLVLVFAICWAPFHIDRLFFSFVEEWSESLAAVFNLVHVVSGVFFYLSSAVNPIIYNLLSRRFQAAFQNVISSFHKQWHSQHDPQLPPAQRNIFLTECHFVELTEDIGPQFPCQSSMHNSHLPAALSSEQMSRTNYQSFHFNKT
- experimental details: displacement of 125I-NMU8 from human TGR1 CHO membrane fraction; IC50 relative to NMU-8;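 also: competitive binding on TGR1-expressing CHO cell membranes, with compounds tested as DMSO dilution series and incubated for 70 min at 25 °C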
Non-standard residues stand in square brackets, D forms with d. No end group written: not given here. *: point of attachment. Acetyl(2-(piperazin-1-yl)) = O=C(CN1CCNCC1)*; PEG 20 kDa = methoxypolyethylene glycol 20k; PEG 30 kDa = methoxypolyethylene glycol 30k; 2Nal = N[C@@H](Cc1ccc2ccccc2c1)C(=O)O; NMeY = CN[C@@H](Cc1ccc(O)cc1)C(=O)O; NMeR = CN[C@@H](CCCNC(=N)N)C(=O)O; Cha = N[C@@H](CC1CCCCC1)C(=O)O; NMeL = CN[C@@H](CC(C)C)C(=O)O; NMeA = CN[C@@H](C)C(=O)O; βAla = NCCC(=O)O
measured quantity: IC50 ratio

[βAla]YF[Cha]FRPRN-NH2 (N-terminus assumed; SMILES N=C(N)NCCC[C@H](NC(=O)[C@@H]1CCCN1C(=O)[C@H](CCCNC(=N)N)NC(=O)[C@H](Cc1ccccc1)NC(=O)[C@H](CC1CCCCC1)NC(=O)[C@H](Cc1ccccc1)NC(=O)[C@H](Cc1ccc(O)cc1)NC(=O)CCN)C(=O)N[C@@H](CC(N)=O)C(N)=O, X stands for Cha) [β-Ala0,Cha3-NMU-8 (Compound 6)]	9.9 ratio to NMU-8 (=1)
{PEG 30 kDa-βAla}-YFRFRPRN-NH2 (also called PEG-NH-β-Ala0,Arg3-NMU-8) [PEG30k-NH-β-Ala0,Arg3-NMU-8 (Compound C)]	2.6 ratio to NMU-8 (=1)
{PEG 20 kDa-Acetyl(2-(piperazin-1-yl))}-YELFRARN-NH2 (also called PEG20k-NpipAc-Glu2,Ala6-NMU8) [PEG20k-NpipAc0,Glu2,Ala6-NMU-8 (Compound S)]	750 ratio to NMU-8 (=1)
[βAla]YFQFRPRN-NH2 (N-terminus assumed; SMILES N=C(N)NCCC[C@H](NC(=O)[C@@H]1CCCN1C(=O)[C@H](CCCNC(=N)N)NC(=O)[C@H](Cc1ccccc1)NC(=O)[C@H](CCC(N)=O)NC(=O)[C@H](Cc1ccccc1)NC(=O)[C@H](Cc1ccc(O)cc1)NC(=O)CCN)C(=O)N[C@@H](CC(N)=O)C(N)=O) [β-Ala0,Gln3-NMU-8 (Compound 2)]	3.9 ratio to NMU-8 (=1)

Entry under test: {PEG 20 kDa-Acetyl(2-(piperazin-1-yl))}-YFRFRPRN-NH2 [PEG20k-NpipAc-Arg3-NMU-8 (Compound I)] . Its IC50 ratio was 2.1 ratio to NMU-8 (=1)

Entry under test: [βAla][NMeY]F[NMeL]F[NMeR]PRN-NH2 (N-terminus assumed; SMILES CC(C)C[C@@H](C(=O)N[C@@H](Cc1ccccc1)C(=O)N(C)[C@@H](CCCNC(=N)N)C(=O)N1CCC[C@H]1C(=O)N[C@@H](CCCNC(=N)N)C(=O)N[C@@H](CC(N)=O)C(N)=O)N(C)C(=O)[C@H](Cc1ccccc1)NC(=O)[C@H](Cc1ccc(O)cc1)N(C)C(=O)CCN, also called β-Ala0,NMeTry1,NMeLeu3,NMEArg5-NMU-8) [β-Ala0,NMeTyr1,NMeLeu3,NMeArg5-NMU-8 (Compound 16)] . Its IC50 ratio was 27 ratio to NMU-8 (=1)

Entry under test: {Acetyl(2-(piperazin-1-yl))}-FWLFRARN-NH2 (SMILES CC(C)C[C@H](NC(=O)[C@H](Cc1c[nH]c2ccccc12)NC(=O)[C@H](Cc1ccccc1)NC(=O)CN1CCNCC1)C(=O)N[C@@H](Cc1ccccc1)C(=O)N[C@@H](CCCNC(=N)N)C(=O)N[C@@H](C)C(=O)N[C@@H](CCCNC(=N)N)C(=O)N[C@@H](CC(N)=O)C(N)=O, also called 2-(piperazin-1-yl)acetyl-[Phe1,Trp2,Ala6]-NMU-8) [NpipAc0,Phe1,Trp2,Ala6-NMU-8 (Compound 11)] . Its IC50 ratio was 0.19 ratio to NMU-8 (=1)

Entry under test: {PEG 30 kDa-βAla}-YFQFRPRN-NH2 (also called PEG-NH-β-Ala0,Gln3-NMU-8) [PEG30k-NH-β-Ala0,Gln3-NMU-8 (Compound B)] . Its IC50 ratio was 7.3 ratio to NMU-8 (=1)

Entry under test: {mPEG 20 kDa-Acetyl(2-(piperazin-1-yl))}-Y[2Nal]LFR[NMeA]RN-NH2 (X stands for Nal(2); also called PEG20k-NpipAc-Nal(2)2,NMeAla6-NMU8) [PEG20k-NpipAc0,Nal(2)2,NMeAla6-NMU-8 (Compound V)] . Its IC50 ratio was 27 ratio to NMU-8 (=1)

Entry under test: {PEG 20 kDa-Acetyl(2-(piperazin-1-yl))}-YWLFRARN-NH2 (also called PEG20k-NpipAc-Trp2,Ala6-NMU8) [PEG20k-NpipAc0,Trp2,Ala6-NMU-8 (Compound T)] . Its IC50 ratio was 55 ratio to NMU-8 (=1)

Entry under test: [βAla]YFLFRPRD-NH2 (N-terminus assumed; SMILES CC(C)C[C@H](NC(=O)[C@H](Cc1ccccc1)NC(=O)[C@H](Cc1ccc(O)cc1)NC(=O)CCN)C(=O)N[C@@H](Cc1ccccc1)C(=O)N[C@@H](CCCNC(=N)N)C(=O)N1CCC[C@H]1C(=O)N[C@@H](CCCNC(=N)N)C(=O)N[C@@H](CC(=O)O)C(N)=O) [β-Ala0,Asp8-NMU-8 (Compound 12)] . Its IC50 ratio was 2 ratio to NMU-8 (=1)

Entry under test: [βAla]YELFR[NMeA]RN-NH2 (N-terminus assumed; SMILES CC(C)C[C@H](NC(=O)[C@H](CCC(=O)O)NC(=O)[C@H](Cc1ccc(O)cc1)NC(=O)CCN)C(=O)N[C@@H](Cc1ccccc1)C(=O)N[C@@H](CCCNC(=N)N)C(=O)N(C)[C@@H](C)C(=O)N[C@@H](CCCNC(=N)N)C(=O)N[C@@H](CC(N)=O)C(N)=O) [β-Ala0,Glu2,NMeAla6-NMU-8 (Compound 18)] . Its IC50 ratio was 31 ratio to NMU-8 (=1)

Entry under test: {PEG 30 kDa-βAla}-PFLFRPRN-NH2 (also called PEG-NH-β-Ala0,Pro1-NMU-8) [PEG30k-NH-β-Ala0,Pro1-NMU-8 (Compound H)] . Its IC50 ratio was 21 ratio to NMU-8 (=1)

Entry under test: {Acetyl(2-(piperazin-1-yl))}-YELFRARN-NH2 (SMILES CC(C)C[C@H](NC(=O)[C@H](CCC(=O)O)NC(=O)[C@H](Cc1ccc(O)cc1)NC(=O)CN1CCNCC1)C(=O)N[C@@H](Cc1ccccc1)C(=O)N[C@@H](CCCNC(=N)N)C(=O)N[C@@H](C)C(=O)N[C@@H](CCCNC(=N)N)C(=O)N[C@@H](CC(N)=O)C(N)=O, also called 2-(piperazin-1-yl)acetyl-[Glu2,Ala6]-NMU8) [NpipAc0,Glu2,Ala6-NMU-8 (Compound 19)] . Its IC50 ratio was 25 ratio to NMU-8 (=1)

Entry under test: [βAla]RFLFRPRN-NH2 (N-terminus assumed; SMILES CC(C)C[C@H](NC(=O)[C@H](Cc1ccccc1)NC(=O)[C@H](CCCNC(=N)N)NC(=O)CCN)C(=O)N[C@@H](Cc1ccccc1)C(=O)N[C@@H](CCCNC(=N)N)C(=O)N1CCC[C@H]1C(=O)N[C@@H](CCCNC(=N)N)C(=O)N[C@@H](CC(N)=O)C(N)=O) [β-Ala0,Arg1-NMU-8 (Compound 7)] . Its IC50 ratio was 3.7 ratio to NMU-8 (=1)
